# systemUnderTest: T1, human hepcidin (mature, 25 amino acids) (human, mono-biotinylated in the ELISAs and on the KinExA beads (site not stated); unlabelled in solution and on the BIAcore chip)
# T1 construct: the form is named in each assay field; also called rhuHepc; rhHepc
# T1 peptide: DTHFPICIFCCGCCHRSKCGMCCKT
# assayOverview: ELISA, mono-biotinylated human hepcidin on Neutravidin plate, pH 6.0 against pH 7.4
endpoint: fold increase in EC50 as the pH was lowered to 6.0

{"columns": ["binder", "result"],
 "data": [
  ["15E1 N57H (antibody, V domains shown, Histidine mutant of 15E1, transiently expressed in 293-6E cells; constant regions as in wild-type 15E1; also called N57H (heavy chain)) VH: QVQLVESGGGVVQPGRSLRLSCAASGFTFSSYGMHWVRQAPGKGLEWVAVIWYAESHKYYADSVKGRFTISRDNSKNTLYLQMNSLRAEDTAVYYCARAQEGIAPDAFDIWGQGTMVTVSS VL: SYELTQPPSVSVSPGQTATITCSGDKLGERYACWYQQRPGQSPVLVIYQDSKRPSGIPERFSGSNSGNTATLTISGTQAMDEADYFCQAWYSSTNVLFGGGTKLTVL", "≥ 1.5 fold"],
  ["15E1 A99H (antibody, V domains shown, Histidine mutant of 15E1, transiently expressed in 293-6E cells; constant regions as in wild-type 15E1; also called A99H (heavy chain)) VH: QVQLVESGGGVVQPGRSLRLSCAASGFTFSSYGMHWVRQAPGKGLEWVAVIWYAESNKYYADSVKGRFTISRDNSKNTLYLQMNSLRAEDTAVYYCARHQEGIAPDAFDIWGQGTMVTVSS VL: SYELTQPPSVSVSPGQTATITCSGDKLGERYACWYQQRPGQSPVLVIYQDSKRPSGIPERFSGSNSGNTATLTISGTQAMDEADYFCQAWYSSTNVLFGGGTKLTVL", "≥ 1.5 fold"],
  ["15E1 A107H (antibody, V domains shown, Histidine mutant of 15E1, transiently expressed in 293-6E cells; constant regions as in wild-type 15E1; also called A107H (heavy chain)) VH: QVQLVESGGGVVQPGRSLRLSCAASGFTFSSYGMHWVRQAPGKGLEWVAVIWYAESNKYYADSVKGRFTISRDNSKNTLYLQMNSLRAEDTAVYYCARAQEGIAPDHFDIWGQGTMVTVSS VL: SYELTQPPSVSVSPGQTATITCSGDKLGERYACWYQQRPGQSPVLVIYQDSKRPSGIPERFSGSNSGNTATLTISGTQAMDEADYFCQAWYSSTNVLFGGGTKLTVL", "≥ 1.5 fold"]
]}
